Target: pig TRPM8 (Sus scrofa, UniProt F1SM15)
Construct: expressed in transfected cells; host or cells: CHO (pcDNA5/FRT/TO vector; hygromycin B and blasticidin selection)
Sequence (F1SM15 1-1104): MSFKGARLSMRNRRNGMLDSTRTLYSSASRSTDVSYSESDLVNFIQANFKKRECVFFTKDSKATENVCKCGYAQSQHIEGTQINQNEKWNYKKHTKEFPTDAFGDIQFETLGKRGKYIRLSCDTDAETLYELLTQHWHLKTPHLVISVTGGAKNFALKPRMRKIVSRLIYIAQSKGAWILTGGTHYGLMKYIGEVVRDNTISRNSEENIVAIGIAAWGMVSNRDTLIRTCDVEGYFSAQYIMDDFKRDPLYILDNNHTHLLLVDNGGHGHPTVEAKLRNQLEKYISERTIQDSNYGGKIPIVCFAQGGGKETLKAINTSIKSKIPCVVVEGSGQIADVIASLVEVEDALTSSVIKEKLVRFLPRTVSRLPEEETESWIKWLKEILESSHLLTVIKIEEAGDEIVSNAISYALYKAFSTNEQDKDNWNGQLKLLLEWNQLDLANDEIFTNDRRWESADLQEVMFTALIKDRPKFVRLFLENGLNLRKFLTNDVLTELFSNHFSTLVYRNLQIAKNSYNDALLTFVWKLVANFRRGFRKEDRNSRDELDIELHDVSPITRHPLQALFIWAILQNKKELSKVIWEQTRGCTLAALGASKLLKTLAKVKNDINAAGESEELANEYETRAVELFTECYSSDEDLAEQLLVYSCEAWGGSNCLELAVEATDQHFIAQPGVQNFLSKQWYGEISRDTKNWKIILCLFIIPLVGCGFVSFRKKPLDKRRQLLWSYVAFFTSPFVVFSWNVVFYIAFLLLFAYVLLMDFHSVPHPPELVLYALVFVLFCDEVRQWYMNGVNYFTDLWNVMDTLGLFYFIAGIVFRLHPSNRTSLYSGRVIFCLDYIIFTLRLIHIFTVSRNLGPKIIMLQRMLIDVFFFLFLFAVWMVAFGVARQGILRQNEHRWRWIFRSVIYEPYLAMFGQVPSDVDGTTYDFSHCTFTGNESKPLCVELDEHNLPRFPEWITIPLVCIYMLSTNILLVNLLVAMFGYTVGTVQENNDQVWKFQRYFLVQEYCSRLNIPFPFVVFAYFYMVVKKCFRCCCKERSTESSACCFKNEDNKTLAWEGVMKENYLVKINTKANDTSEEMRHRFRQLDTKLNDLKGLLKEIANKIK
Assay: In vitro pig TRPM8 fluorescence calcium flux assay (recombinant CHO cells, Fluo4-AM, FDSS6000)
Assay type: cell-based
Conditions: recombinant CHO cells expressing pig TRPM8; menthol-related EC50, normalized to 100 μM menthol
measure-name: EC50 (nM)
One number for each entry, in nM.

# molecule, EC50, nM
data = [
    ("Cc1cccc([C@@H](O)CNC(=O)[C@]2(O)C[C@H](C)CC[C@H]2C(C)C)c1 [Example 45]", 18.2),
]

Please state, for each entry, its recorded EC50.
1. CC(C)[C@@H]1CC[C@@H](C)C[C@@]1(O)C(=O)NCCc1cccnc1 [Example 124]
2. COc1ccc2c(c1)CCC2CNC(=O)[C@]1(O)C[C@H](C)CC[C@H]1C(C)C (stereo partly drawn) [Example 152]

Reply:
11.7
47
